These measurements were taken from patent US8835461B2.

target: Cap-dependent endonuclease (CEN); RNP fraction containing PB1•PB2•PA complex (Influenza A virus, UniProt P15659); assay: Measurement of cap-dependent endonuclease (CEN) inhibitory activity; assay type: biochemical, influenza A/WSN/33 virus; conditions: RNP enzyme from A/WSN/33 virus, capped Cy3/BHQ2-labelled 30mer RNA substrate, 60 minutes at room temperature; read-out: CEN IC50
measured_endpoint: log10 of IC50 (log10 of the value in µM)

[[record]]
chem_smiles = "O=C(O)c1cn(CC2(c3ccccc3)CCOCC2)cc(O)c1=O"
reported = -0.75

[[record]]
chem_smiles = "O=C(NS(=O)(=O)C1CC1)c1cn(Cc2ccccc2-c2ccccc2)cc(O)c1=O"
reported = -0.17

[[record]]
chem_smiles = "COc1ncc(-c2ccccc2Cn2cc(O)c(=O)c(C(=O)O)c2)cn1"
reported = -0.49

[[record]]
chem_smiles = "CCCCS(=O)(=O)NC(=O)c1cn(Cc2ccccc2-c2ccccc2)cc(O)c1=O"
reported = -0.27

[[record]]
chem_smiles = "CC(=O)c1ccc(-c2ccccc2Cn2cc(O)c(=O)c(C(=O)O)c2)cc1"
reported = -0.66

[[record]]
chem_smiles = "O=C(O)c1cn(Cc2ccccc2-c2ccc(NCC3CCCCC3)nc2)cc(O)c1=O"
reported = -0.34

[[record]]
chem_smiles = "O=C(O)c1cn(CC2CCCC2)cc(O)c1=O"
reported = -0.07

[[record]]
chem_smiles = "O=C(O)c1cn(CC2(c3ccccc3)CCCC2)cc(O)c1=O"
reported = -1.21

[[record]]
chem_smiles = "O=C(O)c1cn(CC2(n3ccc4ccccc43)CCCC2)cc(O)c1=O"
reported = -1.46


---

target: Cap-dependent endonuclease (CEN); RNP fraction containing PB1•PB2•PA complex (Influenza A virus); assay: Measurement of cap-dependent endonuclease (CEN) inhibitory activity; assay type: biochemical, influenza A/WSN/33 virus; details: RNP enzyme from A/WSN/33 virus, capped Cy3/BHQ2-labelled 30mer RNA substrate, 60 minutes at room temperature; read-out: CEN IC50
measured_endpoint: log10 IC50 (log10 of the value in nM)

[[record]]
compound = "O=C(O)c1cn(CC2(n3ccc4cccnc43)CCCC2)cc(O)c1=O"
reported = 0.70

[[record]]
compound = "O=C(O)c1cn(CC2(c3ccccc3)Cc3ccccc3C2)cc(O)c1=O"
reported = 2.44

[[record]]
compound = "O=C(O)c1cn(CC2CCCCN2C(=O)OCc2ccccc2F)cc(O)c1=O (stereo not drawn)"
reported = 2.50

[[record]]
compound = "N#Cc1ccccc1CN1CCCCC1Cn1cc(O)c(=O)c(C(=O)O)c1 (stereo not drawn)"
reported = 2.34

[[record]]
compound = "O=C(O)c1cn(CC2(c3cccc4ccccc34)CCCC2)cc(O)c1=O"
reported = 1.45

[[record]]
compound = "O=c1c(O)cn(Cc2ccccc2-c2ccc(F)c(Cl)c2)cc1O"
reported = 2.71

[[record]]
compound = "O=C(O)c1cn(CC2(c3cccc(C(F)(F)F)c3)CCCC2)cc(O)c1=O"
reported = 1.08

[[record]]
compound = "O=C(O)c1cn(CC2(c3ccccn3)CCCC2)cc(O)c1=O"
reported = 2.04

[[record]]
compound = "O=C(O)c1cn(C[C@@H]2CCCN2c2ccccc2)cc(O)c1=O"
reported = 2.63

[[record]]
compound = "O=C(O)c1cn(CC2(c3ccc4c(c3)OCO4)CCCC2)cc(O)c1=O"
reported = 1.20

[[record]]
compound = "O=C(O)c1cn(CC2(c3nc4ccccc4s3)CCCC2)cc(O)c1=O"
reported = 1.67

[[record]]
compound = "O=C(O)c1cn(Cc2ccccc2-c2ccccc2)cc(O)c1=O"
reported = 2.34

